Data origin, for the record: paper PMC12022901

TEST_SUMMARY: clinical
ASSAY_CONDITIONS: human, in vivo, po
ENDPOINT_LABEL: tmax

# COMPOUND_STRUCTURE_STRING, RESULT
records = [
    ("O=C(NC[C@H]1CN(c2ccc(N3CCOCC3=O)cc2)C(=O)O1)c1ccc(Cl)s1", "49 min"),
]

====

TEST_SUMMARY: Pharmacokinetics of factor Xa inhibitors at baseline and at gabapentin steady-state (open-label fixed-sequence DDI trial)
ASSAY_CONDITIONS: human, in vivo, po, AUC∞, oral microdose cocktail; baseline; GM
ENDPOINT_LABEL: AUC(0-inf) (ng·h/mL)

# COMPOUND_STRUCTURE_STRING, NUMERIC_READOUT
data = [
    ("O=C(NC[C@H]1CN(c2ccc(N3CCOCC3=O)cc2)C(=O)O1)c1ccc(Cl)s1", 3.23),
    ("COc1ccc(-n2nc(C(N)=O)c3c2C(=O)N(c2ccc(N4CCCCC4=O)cc2)CC3)cc1", 6.95),
]
